# CONDITION CONTEXT: in ethylene glycol, 313.15 K

COMPOUND STRUCTURE	solubility (mole fraction)
O=C(Nc1ccc(Cl)cc1)Nc1ccc(Cl)c(Cl)c1	2.14e-05

====

# CONDITION CONTEXT: in water, 303.15 K

COMPOUND STRUCTURE	solubility (mole fraction)
O=C(Nc1ccc(Cl)cc1)Nc1ccc(Cl)c(Cl)c1	3.78e-09

====

# CONDITION CONTEXT: in water, 308.15 K

COMPOUND STRUCTURE	solubility (mole fraction)
O=C(Nc1ccc(Cl)cc1)Nc1ccc(Cl)c(Cl)c1	5.72e-09

====

# CONDITION CONTEXT: in water, 313.15 K

COMPOUND STRUCTURE	solubility (mole fraction)
O=C(Nc1ccc(Cl)cc1)Nc1ccc(Cl)c(Cl)c1	7.48e-09

====

# CONDITION CONTEXT: in ethylene glycol, 303.15 K
ENDPOINT NAME: solubility (mole fraction)

COMPOUND STRUCTURE	ENDPOINT NAME	REPORTED VALUE
O=C(Nc1ccc(Cl)cc1)Nc1ccc(Cl)c(Cl)c1	solubility (mole fraction)	1.02e-05

====

# CONDITION CONTEXT: in ethylene glycol, 318.15 K

COMPOUND STRUCTURE	solubility (mole fraction)
O=C(Nc1ccc(Cl)cc1)Nc1ccc(Cl)c(Cl)c1	2.64e-05

====

# CONDITION CONTEXT: in ethylene glycol, 293.15 K
ENDPOINT NAME: solubility (mole fraction)

COMPOUND STRUCTURE	ENDPOINT NAME	REPORTED VALUE
O=C(Nc1ccc(Cl)cc1)Nc1ccc(Cl)c(Cl)c1	solubility (mole fraction)	5.89e-06

====

# CONDITION CONTEXT: in water, 318.15 K
ENDPOINT NAME: solubility (mole fraction)

COMPOUND STRUCTURE	ENDPOINT NAME	REPORTED VALUE
O=C(Nc1ccc(Cl)cc1)Nc1ccc(Cl)c(Cl)c1	solubility (mole fraction)	9.28e-09

====

# CONDITION CONTEXT: in ethylene glycol, 298.15 K

COMPOUND STRUCTURE	solubility (mole fraction)
O=C(Nc1ccc(Cl)cc1)Nc1ccc(Cl)c(Cl)c1	8.3e-06
